molecular target: Acetylcholinesterase (Musca domestica, UniProt Q7YWJ9); experiment: Inhibition of Musca domestica (house fly) acetylcholinesterase
Sequence (Q7YWJ9 whole entry): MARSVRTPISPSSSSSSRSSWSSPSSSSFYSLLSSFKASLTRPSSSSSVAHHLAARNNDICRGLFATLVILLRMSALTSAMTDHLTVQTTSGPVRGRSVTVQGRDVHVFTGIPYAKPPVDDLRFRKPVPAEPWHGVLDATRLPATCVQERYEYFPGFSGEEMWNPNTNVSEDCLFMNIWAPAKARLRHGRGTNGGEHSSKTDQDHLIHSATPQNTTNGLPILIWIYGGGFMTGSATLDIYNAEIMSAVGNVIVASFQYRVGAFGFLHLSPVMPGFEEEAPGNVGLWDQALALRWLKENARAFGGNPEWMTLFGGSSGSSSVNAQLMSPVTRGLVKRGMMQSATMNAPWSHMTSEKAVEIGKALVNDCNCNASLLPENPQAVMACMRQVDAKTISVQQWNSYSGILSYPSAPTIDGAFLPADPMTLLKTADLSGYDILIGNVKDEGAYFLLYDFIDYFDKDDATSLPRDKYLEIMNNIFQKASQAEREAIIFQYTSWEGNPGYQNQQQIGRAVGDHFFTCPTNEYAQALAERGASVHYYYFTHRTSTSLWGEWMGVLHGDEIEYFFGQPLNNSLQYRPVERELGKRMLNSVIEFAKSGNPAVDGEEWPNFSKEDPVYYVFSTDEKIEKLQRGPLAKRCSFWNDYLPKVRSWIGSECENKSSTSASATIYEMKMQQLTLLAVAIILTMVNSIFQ
As shown below, each of these molecules has a reported IC50 value.
Field format: number, assumed mM, no unit text.

Some entries whose results are on file:
CN1CCC[C@@H]1c1cccnc1 : 0.23
CCNCc1cccnc1 : 7.1
CCN(CC)Cc1ccccn1 : 3

The molecule identified as c1cncc(CN2CCCC2)c1 registered its IC50 at 1.4

IC50 recorded for this molecule, c1cncc(C2=NCCC2)c1 , is 6.8

CCCCNCc1cccnc1 has a reported IC50 of 23

----------
Biological target: Nicotinic acetylcholine receptor alpha 5 subunit (Musca domestica)
Sequence (A9XFY4 whole entry): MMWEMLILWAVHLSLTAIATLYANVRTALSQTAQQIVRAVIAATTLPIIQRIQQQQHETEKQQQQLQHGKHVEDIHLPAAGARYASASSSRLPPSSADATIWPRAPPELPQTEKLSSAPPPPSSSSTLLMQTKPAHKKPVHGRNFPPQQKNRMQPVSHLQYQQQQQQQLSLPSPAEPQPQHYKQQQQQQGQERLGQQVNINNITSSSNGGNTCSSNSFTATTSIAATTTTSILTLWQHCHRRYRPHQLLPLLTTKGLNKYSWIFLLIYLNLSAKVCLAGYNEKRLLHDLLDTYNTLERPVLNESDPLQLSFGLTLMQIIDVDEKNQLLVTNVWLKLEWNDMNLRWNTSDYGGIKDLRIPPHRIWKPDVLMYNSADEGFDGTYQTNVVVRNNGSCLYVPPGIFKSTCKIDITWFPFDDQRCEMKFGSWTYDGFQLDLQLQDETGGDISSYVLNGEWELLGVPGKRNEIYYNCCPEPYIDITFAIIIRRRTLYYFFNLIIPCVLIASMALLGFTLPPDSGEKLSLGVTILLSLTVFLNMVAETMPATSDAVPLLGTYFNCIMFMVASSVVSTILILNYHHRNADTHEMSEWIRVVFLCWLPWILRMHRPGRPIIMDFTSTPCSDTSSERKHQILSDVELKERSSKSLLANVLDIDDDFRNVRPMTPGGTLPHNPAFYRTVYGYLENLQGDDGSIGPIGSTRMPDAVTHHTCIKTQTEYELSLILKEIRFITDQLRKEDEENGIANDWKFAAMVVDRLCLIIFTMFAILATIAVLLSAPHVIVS
Assay: Displacement of [3H]alpha-bungarotoxin from nAChR in Musca domestica (house fly) head membrane after 60 min by scintillation counting
Catalogue of compounds with associated Ki

COc1nn(-c2ccc(C)cc2OC)c(=O)o1 : > 1000 µM
O=[N+]([O-])C=C1NCCN1 : > 1000 µM

Could you now look at the following compound, please?
The compound identified as CN1C(=O)CC[C@H]1c1cccnc1 registered its Ki at > 1000 µM
